experiment: Solubility of amorphous substance in solvent systems (supersaturated solution, oscillated 24 h at room temperature, HPLC); type: physicochemical; settings: dehydrated alcohol-PEG400-water solvent mixture, aqueous with cosolvent or surfactant or cyclodextrin, thermodynamic from solid, Dehydrated alcohol 50%-PEG400 30%-water 20% (w/w); read-out: Solubility
quantityMeasured: solubility at 24 h

molecule | endpointValue
Cc1ncsc1-c1ccc(CNC(=O)[C@@H]2C[C@@H](O)CN2C(=O)[C@@H](NC(=O)COCCCCOc2ccc(-c3ccc(N4C(=S)N(c5ccc(C#N)c(C(F)(F)F)c5F)C(=O)C4(C)C)cn3)cc2)C(C)(C)C)cc1 | > 49.7 mg/mL
